- Test system: Escherichia coli TOP10;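 note: peptides expressed intracellularly from a pBAD plasmid library in pooled LB shake-flask culture, induced with 0.3% L-arabinose, DNA abundance read by NGS, three biological replicates, DESeq2 with apeglm shrinkage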
- Test protocol: shrunken log2 fold change of peptide-encoding DNA abundance (4.5 h post-induction vs induction); higher = less antimicrobial activity (less host growth inhibition)
- Recorded conditions: time post-induction: 4.5 h; library: site-saturation at positions 5, 18, 19, 20
Recorded shrunken log2 fold change determines the group label, using low (below -0.2), intermediate (-0.2 to below -0.02), high (-0.02 or more)

Completed entries (count: 6):
• RRIRHRPPRLPRPRPRPGDQPRP = intermediate
• RRIRRRPPRLPRPRPRPVAAPRP = high
• RRIRLRPPRLPRPRPRPETSPRP = intermediate
• RRIRARPPRLPRPRPRPTDLPRP = high
• RRIRVRPPRLPRPRPRPRWDPRP = high
• RRIRARPPRLPRPRPRPHYHPRP = low

Ask: Which band does RRIRHRPPRLPRPRPRPGSTPRP fall in?
Result: low

Ask: Which band does RRIRWRPPRLPRPRPRPEVYPRP fall in?
Result: intermediate

Ask: Which band does RRIRTRPPRLPRPRPRPNMAPRP fall in?
Result: intermediate
